Could you please report measured pIC50 for the items listed next?
Experimental target: RecO (Escherichia coli)
Construct: His-tag (TEV site) (N, cleaved yes); made in house; host or cells: E. coli Rosetta cells
Protocol summary: biochemical
Type: binding
Measurement setup: 0.5 μM RecO, 50 nM F-wtSSB tracer, 0–500 μM unlabeled peptide, 30 min room temperature; 20 mM Tris-HCl pH 8.0, 200 mM NaCl, 10% glycerol, 0.01% Triton-X 100; 25 °C; triplicate; read-out: IC50 on RecO, competitive fluorescence anisotropy
Where a SMILES comes first, the peptide text is derived from it. [ ]: non-standard residue; d: D form. NMeF = CN[C@@H](Cc1ccccc1)C(=O)O; NMeD = CN[C@@H](CC(=O)O)C(=O)O
Quick note: pIC50 means taking -log10 of the concentration in moles per liter.

Give the value of pIC50 reported for the following: CC[C@H](C)[C@H](NC(=O)[C@H](CC(=O)O)NC(=O)[C@H](CC(=O)O)NC(=O)[C@H](CC(=O)O)NC(=O)[C@H](Cc1ccccc1)NC(=O)[C@H](CC(=O)O)NC(C)=O)C(=O)N1CCC[C@H]1C(=O)N(C)[C@@H](Cc1ccccc1)C(=O)O [NM-Phe8] (Ac-DFDDDIP[NMeF]-OH)
4.19

Give the value of pIC50 reported for the following: CC[C@H](C)[C@H](NC(=O)[C@H](CC(=O)O)NC(=O)[C@H](CC(=O)O)NC(=O)[C@H](CC(=O)O)NC(=O)[C@H](Cc1ccccc1)NC(=O)[C@H](CC(=O)O)N(C)C(C)=O)C(=O)N1CCC[C@H]1C(=O)N[C@@H](Cc1ccccc1)C(=O)O [NM-Asp1] (Ac-[NMeD]FDDDIPF-OH)
5.29

----------
Experimental target: RecO (Escherichia coli, UniProt P0A7H3)
Construct: His-tag (TEV site) (N, cleaved yes); made in house; host or cells: E. coli Rosetta cells
Sequence (P0A7H3 whole entry): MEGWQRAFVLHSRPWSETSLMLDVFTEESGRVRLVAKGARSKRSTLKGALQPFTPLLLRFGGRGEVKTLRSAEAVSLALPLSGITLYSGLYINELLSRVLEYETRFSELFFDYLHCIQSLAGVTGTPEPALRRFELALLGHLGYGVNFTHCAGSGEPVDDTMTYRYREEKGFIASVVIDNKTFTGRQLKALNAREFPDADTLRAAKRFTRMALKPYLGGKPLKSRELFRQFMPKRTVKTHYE
Protocol summary: biochemical
Type: binding
Measurement setup: 0.5 μM RecO, 50 nM F-wtSSB tracer, 0–500 μM unlabeled peptide, 30 min room temperature; 20 mM Tris-HCl pH 8.0, 200 mM NaCl, 10% glycerol, 0.01% Triton-X 100; 25 °C; triplicate; read-out: IC50 on RecO, competitive fluorescence anisotropy
Where a SMILES comes first, the peptide text is derived from it. [ ]: non-standard residue; d: D form. Phe(4-F) = N[C@@H](Cc1ccc(F)cc1)C(=O)O
Quantity: IC50 (µM)
Only the number, expressed in µM, is required.

Give the value of IC50 reported for the following: CC[C@H](C)[C@H](NC(=O)[C@H](CC(=O)O)NC(=O)[C@H](CC(=O)O)NC(=O)[C@H](CC(=O)O)NC(=O)[C@H](Cc1ccccc1)NC(=O)[C@H](CC(=O)O)NC(C)=O)C(=O)N1CCC[C@H]1C(=O)N[C@@H](Cc1ccc(F)cc1)C(=O)O [4-F-Phe8] (Ac-DFDDDIP[Phe(4-F)]-OH)
4.07

----------
Where a SMILES comes first, the peptide text is derived from it. [ ]: non-standard residue; d: D form. Tic = O=C(O)[C@@H]1Cc2ccccc2CN1; NMeD = CN[C@@H](CC(=O)O)C(=O)O; Tle = CC(C)(C)[C@H](N)C(=O)O; β3hD = NC(CC(=O)O)CC(=O)O
Quantity: IC50 (nM)
Only the number, expressed in nM, is required.

Provide the reported IC50 (system: ExoI (Escherichia coli)) for CC[C@H](C)[C@H](NC(=O)[C@H](CC(=O)O)NC(=O)[C@H](CC(=O)O)NC(=O)[C@H](CC(=O)O)NC(=O)[C@H](Cc1ccccc1)NC(=O)[C@H](CC(=O)O)N(C)C(C)=O)C(=O)N1CCC[C@H]1C(=O)N[C@@H](Cc1ccccc1)C(=O)O [NM-Asp1] (Ac-[NMeD]FDDDIPF-OH)
Sequence (P04995 whole entry): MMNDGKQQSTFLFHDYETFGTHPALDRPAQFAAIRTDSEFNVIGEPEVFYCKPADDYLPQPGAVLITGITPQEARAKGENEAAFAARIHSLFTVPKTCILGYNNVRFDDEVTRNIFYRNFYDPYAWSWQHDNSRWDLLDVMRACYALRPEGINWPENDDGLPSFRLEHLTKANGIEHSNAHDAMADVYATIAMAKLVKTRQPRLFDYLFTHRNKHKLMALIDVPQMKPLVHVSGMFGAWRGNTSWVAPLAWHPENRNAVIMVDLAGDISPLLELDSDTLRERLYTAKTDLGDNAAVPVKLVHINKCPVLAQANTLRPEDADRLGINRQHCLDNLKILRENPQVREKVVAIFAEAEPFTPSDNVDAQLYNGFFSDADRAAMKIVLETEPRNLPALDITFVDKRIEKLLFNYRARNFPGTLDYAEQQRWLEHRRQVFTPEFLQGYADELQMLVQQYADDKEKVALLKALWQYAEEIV
2170

Provide the reported IC50 (system: ExoI (Escherichia coli)) for CC[C@H](C)[C@H](NC(=O)[C@H](CC(=O)O)NC(=O)[C@H](CC(=O)O)NC(=O)[C@H](CC(=O)O)NC(=O)[C@@H]1Cc2ccccc2CN1C(=O)[C@H](CC(=O)O)NC(C)=O)C(=O)N1CCC[C@H]1C(=O)N[C@@H](Cc1ccccc1)C(=O)O [Tic2] (Ac-D[Tic]DDDIPF-OH)
6600

Provide the reported IC50 (system: ExoI (Escherichia coli)) for CC[C@H](C)[C@H](NC(=O)[C@H](CC(=O)O)NC(=O)C[C@H](CC(=O)O)NC(=O)[C@H](CC(=O)O)NC(=O)[C@H](Cc1ccccc1)NC(=O)[C@H](CC(=O)O)NC(C)=O)C(=O)N1CCC[C@H]1C(=O)N[C@@H](Cc1ccccc1)C(=O)O [β3-Asp4] (Ac-DFD[β3hD]DIPF-OH)
1540

Provide the reported IC50 (system: ExoI (Escherichia coli)) for CC(=O)N[C@@H](CC(=O)O)C(=O)N[C@@H](Cc1ccccc1)C(=O)N[C@@H](CC(=O)O)C(=O)N[C@@H](CC(=O)O)C(=O)N[C@@H](CC(=O)O)C(=O)N[C@H](C(=O)N1CCC[C@H]1C(=O)N[C@@H](Cc1ccccc1)C(=O)O)C(C)(C)C [tBuGly6] (Ac-DFDDD[Tle]PF-OH)
2870

----------
Where a SMILES comes first, the peptide text is derived from it. [ ]: non-standard residue; d: D form. Phe(4-CF3) = N[C@@H](Cc1ccc(C(F)(F)F)cc1)C(=O)O; Phe(4-F) = N[C@@H](Cc1ccc(F)cc1)C(=O)O; NMeD = CN[C@@H](CC(=O)O)C(=O)O; β3hD = NC(CC(=O)O)CC(=O)O; Aib = CC(C)(N)C(=O)O
The following are reported IC50 results, target or system ExoI (Escherichia coli).
Only the number, expressed in µM, is required.

Give the value of IC50 reported for the following: CC(=O)N[C@@H](CC(=O)O)C(=O)N[C@@H](Cc1ccccc1)C(=O)N[C@@H](CC(=O)O)C(=O)N[C@@H](CC(=O)O)C(=O)N[C@@H](CC(=O)O)C(=O)NC(C)(C)C(=O)N1CCC[C@H]1C(=O)N[C@@H](Cc1ccccc1)C(=O)O [Aib6] (Ac-DFDDD[Aib]PF-OH)
27.6

Give the value of IC50 reported for the following: CC[C@H](C)[C@H](NC(=O)[C@H](CC(=O)O)N(C)C(=O)[C@H](CC(=O)O)NC(=O)[C@H](CC(=O)O)NC(=O)[C@H](Cc1ccccc1)NC(=O)[C@H](CC(=O)O)NC(C)=O)C(=O)N1CCC[C@H]1C(=O)N[C@@H](Cc1ccccc1)C(=O)O [NM-Asp5] (Ac-DFDD[NMeD]IPF-OH)
9.3

Give the value of IC50 reported for the following: CC[C@H](C)[C@H](NC(=O)[C@H](CC(=O)O)NC(=O)[C@@H](CC(=O)O)NC(=O)[C@H](CC(=O)O)NC(=O)[C@H](Cc1ccccc1)NC(=O)[C@H](CC(=O)O)NC(C)=O)C(=O)N1CCC[C@H]1C(=O)N[C@@H](Cc1ccccc1)C(=O)O [D-Asp4] (Ac-DFD[dD]DIPF-OH)
3.08

Give the value of IC50 reported for the following: CC[C@H](C)[C@H](NC(=O)[C@H](CC(=O)O)NC(=O)[C@H](CC(=O)O)NC(=O)[C@H](CC(=O)O)NC(=O)[C@H](Cc1ccc(C(F)(F)F)cc1)NC(=O)[C@H](CC(=O)O)NC(C)=O)C(=O)N1CCC[C@H]1C(=O)N[C@@H](Cc1ccc(C(F)(F)F)cc1)C(=O)O [E2-sSSB-Ct] (Ac-D[Phe(4-CF3)]DDDIP[Phe(4-CF3)]-OH)
0.35

Give the value of IC50 reported for the following: CC[C@H](C)[C@H](NC(=O)[C@H](CC(=O)O)NC(=O)[C@H](CC(=O)O)NC(=O)[C@H](CC(=O)O)NC(=O)[C@H](Cc1ccccc1)NC(=O)[C@@H](CC(=O)O)NC(C)=O)C(=O)N1CCC[C@H]1C(=O)N[C@@H](Cc1ccccc1)C(=O)O [D-Asp1] (Ac-[dD]FDDDIPF-OH)
5.55

Give the value of IC50 reported for the following: CC[C@H](C)[C@H](NC(=O)[C@H](CC(=O)O)NC(=O)[C@H](CC(=O)O)NC(=O)[C@H](CC(=O)O)NC(=O)[C@H](Cc1ccccc1)NC(=O)[C@H](CC(=O)O)NC(C)=O)C(=O)N1CCC[C@H]1C(=O)N[C@@H](Cc1ccc(F)cc1)C(=O)O [4-F-Phe8] (Ac-DFDDDIP[Phe(4-F)]-OH)
3.04

Give the value of IC50 reported for the following: CC[C@H](C)[C@H](NC(=O)[C@H](CC(=O)O)NC(=O)[C@H](CC(=O)O)NC(=O)C[C@H](CC(=O)O)NC(=O)[C@H](Cc1ccccc1)NC(=O)[C@H](CC(=O)O)NC(C)=O)C(=O)N1CCC[C@H]1C(=O)N[C@@H](Cc1ccccc1)C(=O)O [β3-Asp3] (Ac-DF[β3hD]DDIPF-OH)
3.65

These measurements were taken from paper PMC10143822.
